TESTED_SYSTEM: TEAD3 (Homo sapiens, UniProt Q99594)
Sequence (Q99594 whole entry, species assumed): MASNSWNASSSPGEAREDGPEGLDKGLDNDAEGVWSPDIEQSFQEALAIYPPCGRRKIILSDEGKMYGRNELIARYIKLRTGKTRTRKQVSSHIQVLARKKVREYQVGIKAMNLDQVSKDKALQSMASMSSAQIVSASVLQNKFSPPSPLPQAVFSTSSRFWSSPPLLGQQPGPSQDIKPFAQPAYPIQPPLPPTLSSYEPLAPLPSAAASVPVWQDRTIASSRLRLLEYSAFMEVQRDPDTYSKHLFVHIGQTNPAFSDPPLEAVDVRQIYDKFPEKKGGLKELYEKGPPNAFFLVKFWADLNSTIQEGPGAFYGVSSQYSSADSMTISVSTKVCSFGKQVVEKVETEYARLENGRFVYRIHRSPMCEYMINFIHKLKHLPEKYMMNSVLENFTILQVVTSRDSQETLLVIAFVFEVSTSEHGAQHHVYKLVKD
ASSAY_EXPLANATION: Thermal shift assay TEAD3
Type: binding
OUTCOME_MEASURE: TEAD3 ΔTm (°C)
// units = °C; emit number, no label

What TEAD3 ΔTm appears in the records for this compound with TEAD3 (Homo sapiens, UniProt Q99594)? CNC(=O)[C@H]1C[C@@H]1c1cc(Oc2ccc(C(F)(F)F)cc2)cc2cn(C)nc12 (single isomer, unassigned) [Example 34b]
10.9

What TEAD3 ΔTm appears in the records for this compound with TEAD3 (Homo sapiens, UniProt Q99594)? `CNS(=O)(=O)CCc1cc(Oc2ccc(C(F)(F)F)cc2)cc2cn(C)nc12`
4

What TEAD3 ΔTm appears in the records for this compound with TEAD3 (Homo sapiens, UniProt Q99594)? Cn1cc2cc(Oc3ccc(C(F)(F)F)cc3)cc(C3C[C@H]3C(=O)N3C[C@@H]4C[C@H]3C[C@H]4O)c2n1 (single isomer, unassigned) [Example 103d]
10.3

What TEAD3 ΔTm appears in the records for this compound with TEAD3 (Homo sapiens, UniProt Q99594)? Cc1ccc2c(c1)c(C1C[C@H]1C(=O)O)cn2-c1ccc(C(F)(F)F)cc1 (mixture of isomers)
5.2

What TEAD3 ΔTm appears in the records for this compound with TEAD3 (Homo sapiens, UniProt Q99594)? Cn1cc2cc(-c3ccc(OC(F)(F)F)cc3)cc(C3C[C@H]3C(=O)O)c2n1 (mixture of isomers)
2.3

What TEAD3 ΔTm appears in the records for this compound with TEAD3 (Homo sapiens, UniProt Q99594)? CC(C)NC(=O)[C@@H]1CC1c1cc(Oc2ccc(C(F)(F)F)cc2)cc2cn(C)nc12 (mixture of isomers)
7.2

What TEAD3 ΔTm appears in the records for this compound with TEAD3 (Homo sapiens, UniProt Q99594)? Cn1cc2cc(Oc3cc(F)ccc3C(F)(F)F)cc([C@@H]3C[C@H]3C(=O)N3CC(O)C3)c2n1 (single isomer, unassigned)
0.3

What TEAD3 ΔTm appears in the records for this compound with TEAD3 (Homo sapiens, UniProt Q99594)? Cn1cc2cc(Oc3ccc(C(F)(F)F)cc3)cc(C3C[C@H]3C(=O)N3[C@@H]4CC[C@H]3C[C@@H](O)C4)c2n1 (single isomer, unassigned)
2.0

What TEAD3 ΔTm appears in the records for this compound with TEAD3 (Homo sapiens, UniProt Q99594)? Cn1cc2cc(Oc3ccc(C(F)(F)F)cc3)cc(C3C[C@H]3C(=O)N3C4COCC3C4)c2n1 (single isomer, unassigned)
12.3

What TEAD3 ΔTm appears in the records for this compound with TEAD3 (Homo sapiens, UniProt Q99594)? CNC(=O)[C@@H]1CC1c1cc(-c2ccc(C(F)(F)F)cc2)cc2cccnc12 (mixture of isomers)
0.5

What TEAD3 ΔTm appears in the records for this compound with TEAD3 (Homo sapiens, UniProt Q99594)? CO[C@H]1CN(C(=O)[C@@H]2C[C@H]2c2cc(Oc3ccc(C(F)(F)F)cc3)cc3cn(C)nc23)C[C@@H]1O (single isomer, unassigned) [Example 112a]
2.0

What TEAD3 ΔTm appears in the records for this compound with TEAD3 (Homo sapiens, UniProt Q99594)? Cn1cc2cc(Oc3ccc(C(F)(F)F)cc3)cc([C@@H]3C[C@H]3C(=O)NCCO)c2n1 (single isomer, unassigned)
9.3

What TEAD3 ΔTm appears in the records for this compound with TEAD3 (Homo sapiens, UniProt Q99594)? `CNS(=O)(=O)CCc1cc(-c2ccc(C(F)(F)F)cc2)cc2c1cnn2C`
3.5

What TEAD3 ΔTm appears in the records for this compound with TEAD3 (Homo sapiens, UniProt Q99594)? CNC(=O)[C@@H]1CC1c1cc(Oc2ccc(C(F)(F)F)cc2)cc2cccnc12 (mixture of isomers)
5.1

What TEAD3 ΔTm appears in the records for this compound with TEAD3 (Homo sapiens, UniProt Q99594)? CNC(=O)[C@@H]1CC1c1cc(Oc2ccc(C(F)(F)F)cc2)cc2cn(C3CC3)nc12 (mixture of isomers)
0.4

What TEAD3 ΔTm appears in the records for this compound with TEAD3 (Homo sapiens, UniProt Q99594)? C[C@H](CO)NC(=O)[C@@H]1CC1c1cc(Oc2ccc(C(F)(F)F)cc2)cc2cn(C)nc12 (single isomer, unassigned)
10.2

What TEAD3 ΔTm appears in the records for this compound with TEAD3 (Homo sapiens, UniProt Q99594)? CNC(=O)[C@@H]1CC1c1cc(Oc2ccc(C(F)(F)F)cc2)cn2ccnc12 (mixture of isomers)
1.2

What TEAD3 ΔTm appears in the records for this compound with TEAD3 (Homo sapiens, UniProt Q99594)? [2H]C([2H])([2H])n1cc2cc(Oc3ccc(C(F)(F)F)cc3)cc([C@@H]3C[C@H]3C(=O)NC)c2n1 (single isomer, unassigned) [Example 76a]
0.6

What TEAD3 ΔTm appears in the records for this compound with TEAD3 (Homo sapiens, UniProt Q99594)? CN(C#N)C(=O)[C@@H]1C[C@H]1c1cc(Oc2ccc(C(F)(F)F)cc2)cc2cn(C)nc12 (single isomer, unassigned)
1.0

What TEAD3 ΔTm appears in the records for this compound with TEAD3 (Homo sapiens, UniProt Q99594)? CN(C)C(=O)[C@@H]1C[C@H]1c1cc(Oc2ccc(C(F)(F)F)c(F)c2)cc2cn(C)nc12 (single isomer, unassigned)
11.4

What TEAD3 ΔTm appears in the records for this compound with TEAD3 (Homo sapiens, UniProt Q99594)? Cn1ncc2c([C@@H]3C[C@H]3C(=O)N3CC(O)C3)cc(-c3ccc(C(F)(F)F)cc3)cc21 (racemic)
0

What TEAD3 ΔTm appears in the records for this compound with TEAD3 (Homo sapiens, UniProt Q99594)? Cn1cc2cc(Oc3ccc(C(F)(F)F)cc3)cc([C@@H]3C[C@H]3C(=O)N3CC(C)(O)C3)c2n1 (single isomer, unassigned)
11.2

What TEAD3 ΔTm appears in the records for this compound with TEAD3 (Homo sapiens, UniProt Q99594)? Cn1cc2cc(Oc3ccc(C(F)(F)F)cc3)cc([C@@H]3C[C@H]3C(=O)N3CCO[C@@H](CO)C3)c2n1 (single isomer, unassigned)
1.2

What TEAD3 ΔTm appears in the records for this compound with TEAD3 (Homo sapiens, UniProt Q99594)? CC(NC(=O)[C@@H]1CC1c1cc(Oc2ccc(C(F)(F)F)cc2)cc2cn(C)nc12)c1ccccn1 (mixture of isomers)
12.4

What TEAD3 ΔTm appears in the records for this compound with TEAD3 (Homo sapiens, UniProt Q99594)? Cn1cc2cc(Oc3ccc(C(F)(F)F)cc3)cc(C3C[C@H]3C(=O)N3C[C@@H]4C[C@H]3C[C@@H]4O)c2n1 (single isomer, unassigned) [Example 103f]
9.2
